# tgt: GPR139 (Homo sapiens, UniProt Q6DWJ6)
# Sequence (Q6DWJ6 whole entry): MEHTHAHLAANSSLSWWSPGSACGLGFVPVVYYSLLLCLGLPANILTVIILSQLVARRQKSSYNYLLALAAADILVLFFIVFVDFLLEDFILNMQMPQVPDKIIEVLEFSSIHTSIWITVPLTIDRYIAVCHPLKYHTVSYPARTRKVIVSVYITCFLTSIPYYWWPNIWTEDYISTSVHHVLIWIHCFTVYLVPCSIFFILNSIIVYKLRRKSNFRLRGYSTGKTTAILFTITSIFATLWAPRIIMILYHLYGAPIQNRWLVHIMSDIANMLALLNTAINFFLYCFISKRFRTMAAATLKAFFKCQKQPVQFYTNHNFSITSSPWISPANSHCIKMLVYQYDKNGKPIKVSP
# assay_remarks: GPR139 Agonist titration / agonist counterscreen assay (calcium detection, HEK-GPR139 cells)
# Format: cell-based
# Design: expressed in transfected cells; host or cells: HEK Aequorin cells, Maxcyte transient transfection
# applied_conditions: GPR139 Agonist Activity; activity relative to known control
experimental_readout: Averaged Max % Response (±St. Dev.) (%)

For orientation, consider the following solved cases.
Cc1cc(Br)ccc1OCC(=O)NNC(=O)c1ccccc1C [SR-01000318521]: 72.38
CC1(c2ccc3c(c2)OCCO3)NC(=O)C(CC(=O)NCC2CCCCC2)C1=O (stereo not drawn) [SR-01000074761]: 95.96
Cc1ccccc1SCC(=O)NNC(=O)c1ccc(Br)s1 [SR-01000069352]: 97.44
Cc1ccc(CN2CCN(CC(=O)NCCc3ccc(Cl)cc3)C2=O)c(Cl)c1 [SR-01000125626]: 79.66
O=C(Cc1cccc2ccccc12)NCC(=O)NNC(=O)c1ccco1 [SR-01000069451]: 95.18
CC(Oc1ccc(Cl)cc1Cl)C(=O)NNC(=O)COc1ccccc1 (stereo not drawn) [SR-01000370374]: 100.37
CC(C)(C)n1c2c(c(=O)[nH]c1=O)C(NC(=O)CCC1CCCCC1)(C(F)(F)F)C(=O)N2 (stereo not drawn) [SR-01000091502]: 88.58

a. CC(C)C(=O)NNC(=O)C(C)Oc1ccc(Cl)cc1Cl (stereo not drawn) [SR-01000361172]
b. Nc1ccc2c(C(F)(F)F)cc(=O)oc2c1 [SR-01000597171]
Lower value for measured Averaged Max % Response (±St. Dev.)? Options: a , b Refer to your chosen item by its label in the answer.
a
(a: 91.50%, b: 177.62%)
